assay: Stability in buffer at various pH values (HPLC, unchanged test substance); format: physicochemical; details: buffer pH 4, 25° C., 24 h, acetonitrile/buffer 1:1
Counter-ions that a name gives are not always drawn.
EXPERIMENTAL_ENDPOINT: % test substance after 24 h [F(t = 24 h) × 100/F(t = 0 h)] (%)
Give the value, in units of %, as a plain number.

Example cases with answers are listed next.
NCC(=O)SCCCCC(=O)N(C[C@H]1CN(c2ccc(N3CCOCC3=O)cc2)C(=O)O1)C(=O)c1ccc(Cl)s1 [Example 5, hydrochloride] :: 100
NCCCC[C@H](N)C(=O)SCCCCC(=O)N(C[C@H]1CN(c2ccc(N3CCOCC3=O)cc2)C(=O)O1)C(=O)c1ccc(Cl)s1 [Example 6, dihydrochloride] :: 99

Please look at the following compound next.
Exercise: Find the measured % test substance after 24 h [F(t = 24 h) × 100/F(t = 0 h)] of N[C@@H](Cc1c[nH]cn1)C(=O)NCCCCC(=O)N(C[C@H]1CN(c2ccc(N3CCOCC3=O)cc2)C(=O)O1)C(=O)c1ccc(Cl)s1 [Example 12, hydrochloride] and report it.
Solution: 101

###

experiment: Stability in buffer at various pH values (HPLC, unchanged test substance); assay type: physicochemical; details: buffer pH 7.4, 25° C., 4 h, acetonitrile/buffer 1:1
Structures can show the parent of a compound that is named as a salt.
The entries below are paired with their reported % test substance after 4 h [F(t = 4 h) × 100/F(t = 0 h)].

Example cases with answers are listed next.
CC(C)[C@H](N)C(=O)OCCCCC(=O)N(C[C@H]1CN(c2ccc(N3CCOCC3=O)cc2)C(=O)O1)C(=O)c1ccc(Cl)s1 [Example 3, hydrochloride] :: 100%
C[C@H](N)C(=O)SCCCCC(=O)N(C[C@H]1CN(c2ccc(N3CCOCC3=O)cc2)C(=O)O1)C(=O)c1ccc(Cl)s1 [Example 7, hydrochloride] :: 97%
O=C(NCCCCC(=O)N(C[C@H]1CN(c2ccc(N3CCOCC3=O)cc2)C(=O)O1)C(=O)c1ccc(Cl)s1)[C@@H]1CCCN1 [Example 11, hydrochloride] :: 100%

Please look at the following compound next.
Exercise: Find the measured % test substance after 4 h [F(t = 4 h) × 100/F(t = 0 h)] of NCCCC[C@H](N)C(=O)NCCCCC(=O)N(C[C@H]1CN(c2ccc(N3CCOCC3=O)cc2)C(=O)O1)C(=O)c1ccc(Cl)s1 [Example 14, hydrochloride] and report it.
Solution: 98%

###

assay: Determination of the solubility in dilute hydrochloric acid (pH 4); format: physicochemical; settings: aqueous buffer, thermodynamic from solid, room temperature, shaken 24 h
Where a name gives a salt, the structure may show the parent alone.
EXPERIMENTAL_ENDPOINT: solubility at 24 h

NCCCC[C@H](N)C(=O)NCCCCC(=O)N(C[C@H]1CN(c2ccc(N3CCOCC3=O)cc2)C(=O)O1)C(=O)c1ccc(Cl)s1 [Example 14, hydrochloride] :: 1900 µg/mL
CC(C)[C@H](N)C(=O)OCCCCC(=O)N(C[C@H]1CN(c2ccc(N3CCOCC3=O)cc2)C(=O)O1)C(=O)c1ccc(Cl)s1 [Example 3, hydrochloride] :: > 3500 µg/mL
C[C@H](N)C(=O)SCCCCC(=O)N(C[C@H]1CN(c2ccc(N3CCOCC3=O)cc2)C(=O)O1)C(=O)c1ccc(Cl)s1 [Example 7, hydrochloride] :: > 500 µg/mL

Exercise: Find the measured solubility at 24 h of N[C@@H](Cc1c[nH]cn1)C(=O)NCCCCC(=O)N(C[C@H]1CN(c2ccc(N3CCOCC3=O)cc2)C(=O)O1)C(=O)c1ccc(Cl)s1 [Example 12, hydrochloride] and report it.
Solution: > 3000 µg/mL
